List of melting point values.

>  <MOLECULE>
COc1ccc(C(=O)Nc2ccc(C(=O)O)c3ccccc23)cc1OC

>  <melting point>
256 to 259 °C

$$$$
>  <MOLECULE>
CC(C)(C)N=NC(C)(C#N)COC(=O)c1ccccc1 (stereo not drawn)

>  <melting point>
57 to 59 °C

$$$$
>  <MOLECULE>
O=c1[nH]cnc2sccc12

>  <melting point>
256 to 258 °C

$$$$
>  <MOLECULE>
Cc1nnc(N2N=C(c3cc(C)c([N+](=O)[O-])c(C)c3)c3cc4c(cc3C[C@H]2C)OCO4)o1

>  <melting point>
132 to 133 °C

$$$$
>  <MOLECULE>
COc1cccc2c(=O)sc(C(=O)O)cc12

>  <melting point>
283 to 284 °C

$$$$
>  <MOLECULE>
O=C1CCCN(C(=O)c2ccc(Cl)cc2)C(=O)CCc2cc(Cl)ccc21

>  <melting point>
141 to 143 °C

$$$$
>  <MOLECULE>
COCCCNS(=O)(=O)NC(=O)/C(C)=C/c1ccc(OCCOC)cc1Oc1ncc(C(F)(F)F)cc1Cl

>  <melting point>
121 to 122 °C

$$$$
>  <MOLECULE>
COc1ccc(C(=O)Nc2ccc(F)cc2)cc1NS(=O)(=O)c1ccc(C#N)cc1

>  <melting point>
131 to 135 °C

$$$$
>  <MOLECULE>
COc1ccc(-c2nc(C(N)=O)sc2-c2ccc(OC)cc2)cc1

>  <melting point>
160 to 162 °C

$$$$
>  <MOLECULE>
CCOC(=O)c1csc(-n2ccnc2)n1

>  <melting point>
107 to 109 °C

$$$$
>  <MOLECULE>
CC(C)(C)OC(=O)c1cc2cc(Cl)ccc2[nH]1

>  <melting point>
140 to 142 °C

$$$$
>  <MOLECULE>
COC(=O)c1cc(N2CCC2)c(C(F)(F)F)cc1[N+](=O)[O-]

>  <melting point>
127 to 136 °C

$$$$
>  <MOLECULE>
O=C(Cc1ccccc1)NCCc1ccccc1

>  <melting point>
91 to 92 °C

$$$$
>  <MOLECULE>
Cc1cc(NC(=O)c2c(Cl)cccc2Cl)c2nccc(NNC(C)C)c2c1

>  <melting point>
154 to 156 °C

$$$$
>  <MOLECULE>
CCC1CCC(=O)C=C1c1ccc(OCC(=O)O)cc1Cl (stereo not drawn)

>  <melting point>
138 to 140 °C

$$$$
>  <MOLECULE>
Cn1nc(CNC(=O)Nc2ccccc2)nc1NCCCOc1cccc(CN2CCCCC2)c1

>  <melting point>
120 to 121 °C

$$$$
>  <MOLECULE>
CCSc1ccc(Oc2ccc(Cl)c(Cl)c2)nc1C#N

>  <melting point>
64 to 66 °C

$$$$
>  <MOLECULE>
COC(=O)c1cccc(Oc2nn(Cc3ccccc3)c3ccccc23)n1

>  <melting point>
92 to 94 °C

$$$$
>  <MOLECULE>
CCC(C)C(=O)Nc1c(C(O)(C(F)(F)F)C(F)(F)F)ccc2ccccc12 (stereo not drawn)

>  <melting point>
167 to 168 °C

$$$$
>  <MOLECULE>
Oc1cccc(-c2ocnc2-c2onc(-c3ccccc3)c2-c2ccccc2)c1

>  <melting point>
199 to 200 °C

$$$$
>  <MOLECULE>
O=C(O)COc1ccccc1C(=O)NCc1ccc(Br)cc1F

>  <melting point>
144 to 145 °C

$$$$
>  <MOLECULE>
CC(C)n1nc(-c2sc(NC3CCCCC3)nc2-c2ccccc2)ccc1=O

>  <melting point>
149 to 151 °C

$$$$
>  <MOLECULE>
O=c1[nH]c(CCc2ccccc2OCc2ccccc2)ccc1-c1nnn[nH]1

>  <melting point>
211 to 213 °C

$$$$
